Hi there, I'd appreciate the recorded IC50 for every entry that follows.
- TARGET_OR_TEST_SYSTEM: class B enzyme CcrA (Bacteroides fragilis)
- Sequence (P25910 19-249): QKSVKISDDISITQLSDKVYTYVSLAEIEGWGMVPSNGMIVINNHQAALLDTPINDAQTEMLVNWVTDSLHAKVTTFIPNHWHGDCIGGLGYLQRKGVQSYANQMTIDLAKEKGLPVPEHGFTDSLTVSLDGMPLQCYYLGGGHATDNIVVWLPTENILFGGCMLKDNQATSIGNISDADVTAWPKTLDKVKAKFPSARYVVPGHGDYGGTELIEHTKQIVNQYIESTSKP
- PROTOCOL_TEXT: β-Lactamase inhibition, IC50 determination (nitrocefin, spectrophotometric)
- Format: biochemical
- TEST_CONDITIONS: enzyme 1.2 nM; 10 min preincubation at 25° C.; nitrocefin 50 μg/ml; 50 mM PO4, pH 7.0; read-out: IC50 (nM) Class B Ccr
Structures can show the parent of a compound that is named as a salt.
Respond with the bare value in nM.

Q: class B enzyme CcrA (Bacteroides fragilis) / IC50 / COc1ccc2c(c1)sc1nc(/C=C3/C(=O)N4C(C(=O)O)=CS[C@H]34)cn12 [Example 2] : value?
Ans: 250

Q: Provide value of IC50 for this record tested with class B enzyme CcrA (Bacteroides fragilis): O=C([O-])C1=CS[C@@H]2/C(=C\c3ccc4nc5sccn5c4c3)C(=O)N12.[Na+] [Example 30, sodium salt]
Ans: 97

Q: Identify the measured IC50 of O=C(O)C1=CS[C@@H]2/C(=C\c3cn4c5c(sc4n3)COCC5)C(=O)N12 [Example 15] for class B enzyme CcrA (Bacteroides fragilis).
Ans: 200

Q: Find the measured IC50: item O=C(O)C1=CS[C@@H]2/C(=C\c3cn4c5c(sc4n3)CCC5)C(=O)N12 [Example 5] , target or system class B enzyme CcrA (Bacteroides fragilis).
Ans: 240

Q: What measured IC50 is associated with O=C(O)C1=CS[C@@H]2/C(=C/c3ccc4c(c3)N(Cc3ccccc3)C(=O)c3ccccc3O4)C(=O)N12 [Example 9] on class B enzyme CcrA (Bacteroides fragilis)?
Ans: 220

Q: Hi! What's the reported IC50 for O=C(O)C1=CS[C@@H]2/C(=C\c3cn4c(cnc5ccccc54)n3)C(=O)N12 [Example 6, sodium salt] on class B enzyme CcrA (Bacteroides fragilis)?
Ans: 350

Q: # query: IC50 | item O=C(O)C1=CS[C@@H]2/C(=C\c3ccc4c(c3)sc3nccn34)C(=O)N12 [Example 16] | system: class B enzyme CcrA (Bacteroides fragilis)
Ans: 130

Q: // fetch class B enzyme CcrA (Bacteroides fragilis) IC50 for O=C(O)C1=CS[C@@H]2/C(=C\c3cn4c(n3)nc3n4CCCC3)C(=O)N12 [Example 8, sodium salt]
Ans: 450

====

- TARGET_OR_TEST_SYSTEM: class A β-lactamase TEM-1 (Escherichia coli)
- Sequence (P62593 24-286 limits assumed): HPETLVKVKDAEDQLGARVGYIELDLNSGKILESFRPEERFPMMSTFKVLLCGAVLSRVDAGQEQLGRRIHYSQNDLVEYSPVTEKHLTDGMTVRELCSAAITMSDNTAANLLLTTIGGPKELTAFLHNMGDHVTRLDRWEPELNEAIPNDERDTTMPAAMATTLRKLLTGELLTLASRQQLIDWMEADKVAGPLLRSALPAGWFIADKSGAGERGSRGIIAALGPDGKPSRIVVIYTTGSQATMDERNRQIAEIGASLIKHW
- PROTOCOL_TEXT: β-Lactamase inhibition, IC50 determination (nitrocefin, spectrophotometric)
- Format: biochemical, E. Coli
- TEST_CONDITIONS: enzyme 4.3 nM; 10 min preincubation at 25° C.; nitrocefin 50 μg/ml; 50 mM PO4, pH 7.0; read-out: IC50 (nM) Class A TEM-1
- Protocol: IC50 Determination for the Penem Inhibitor β-Lactamase inhibitory activity of the penem inhibitors was determined spectrophotometrically as described by Bush et al., [Bush, K., Macalintal, C., Rasmussen, B. A., Lee, V. and Yang, Y. Antimicrobial Agents and Chemotherapy 1993, 37, 851]. […] Initial rates of hydrolysis were monitored for 5 minutes at 495 nm using a Molecular Devices Spectra Max 250 with kinetic protocol of SoftMax Program. […]
MEASUREMENT_LABEL: IC50 (nM)
Numbers only; they are read as nM.

Q: Would you mind telling me what IC50 value was observed for O=C([O-])C1=CS[C@@H]2/C(=C\c3cc4oc5c(n4n3)CCCC5)C(=O)N12.[Na+] [Example 32, sodium salt] ?
Ans: 2.6

Q: Param item = O=C(O)C1=CS[C@@H]2/C(=C\c3ccc4c(c3)sc3nccn34)C(=O)N12 ; retrieve measured IC50.
Ans: 4.5

Q: Name the reported IC50 value associated with the compound O=C(O)C1=CS[C@@H]2/C(=C\c3cn4c5c(sc4n3)CCC5)C(=O)N12
Ans: 1.4

Q: Endpoint output: IC50 of CCOC(=O)N1CCc2c(oc3cc(/C=C4/C(=O)N5C(C(=O)[O-])=CS[C@H]45)nn23)C1.[Na+] [Example 33, sodium salt] . Value?
Ans: 10

====

- TARGET_OR_TEST_SYSTEM: class B enzyme CcrA (Bacteroides fragilis)
- PROTOCOL_TEXT: β-Lactamase inhibition, IC50 determination (nitrocefin, spectrophotometric)
- Type: biochemical
- TEST_CONDITIONS: pH 7; read-out: IC50 (nM) Class B Ccr
MEASUREMENT_LABEL: IC50 (nM)
Numbers only here, please. The scale is nM.

Q: Using the record for O=C(O)C1=CS[C@@H]2/C(=C\c3cn4c(n3)sc3cc(F)ccc34)C(=O)N12 , report its IC50.
Ans: 370

====

- TARGET_OR_TEST_SYSTEM: class A β-lactamase TEM-1 (Escherichia coli)
- PROTOCOL_TEXT: β-Lactamase inhibition, IC50 determination (nitrocefin, spectrophotometric)
- Type: biochemical, E. Coli
- TEST_CONDITIONS: enzyme 4.3 nM; 10 min preincubation at 25° C.; nitrocefin 50 μg/ml; 50 mM PO4, pH 7.0; read-out: IC50 (nM) Class A TEM-1
- Experimental: IC50 Determination for the Penem Inhibitor β-Lactamase inhibitory activity of the penem inhibitors was determined spectrophotometrically as described by Bush et al., [Bush, K., Macalintal, C., Rasmussen, B. A., Lee, V. and Yang, Y. Antimicrobial Agents and Chemotherapy 1993, 37, 851]. […] Initial rates of hydrolysis were monitored for 5 minutes at 495 nm using a Molecular Devices Spectra Max 250 with kinetic protocol of SoftMax Program. […]
MEASUREMENT_LABEL: log10(IC50) (log10 of the value in nM)
# values: log10(IC50), units nM

Q: Quick one: log10(IC50) of O=C(O)C1=CS[C@@H]2/C(=C\c3cn4c5c(sc4n3)CCCC5)C(=O)N12 [Example 19] ?
Ans: 0.28

Q: Quick one: log10(IC50) of COc1ccc2c(c1)sc1nc(/C=C3/C(=O)N4C(C(=O)O)=CS[C@H]34)cn12 [Example 2] ?
Ans: 1.26

Q: # get_value(readout='log10(IC50)', item= O=C(O)C1=CS[C@@H]2/C(=C\c3cn4c(n3)sc3cc(Cl)ccc34)C(=O)N12 [Example 3] )
Ans: 0.75

Q: Which log10(IC50) value belongs to O=C([O-])C1=CS[C@@H]2C(=Cc3cc4n(n3)Cc3ccccc3OC4)C(=O)N12.[Na+] [Example 11, sodium salt] ?
Ans: 0.15

Q: I am curious: what log10(IC50) value has been reported for O=C(O)C1=CS[C@@H]2/C(=C\c3cn4c(n3)sc3ccccc34)C(=O)N12 [Example 1] ?
Ans: 1.00

Q: # query: log10(IC50) of entry O=C(O)C1=CS[C@@H]2/C(=C\c3cn4c5c(sc4n3)COCC5)C(=O)N12 [Example 15]
Ans: 0.45

Q: I am curious: what log10(IC50) value has been reported for O=C([O-])C1=CS[C@@H]2/C(=C\c3cc4c(s3)-c3cccnc3SC4)C(=O)N12.[Na+] [Example 21, (Sodium salt)] ?
Ans: 1.04

Q: Sample Cc1ccc2c(c1)sc1nc(/C=C3/C(=O)N4C(C(=O)O)=CS[C@H]34)cn12 [Example 7] — what was its log10(IC50)?
Ans: 0.41

====

- TARGET_OR_TEST_SYSTEM: class C enzyme AmpC (Enterobacter cloacae, UniProt P05364)
- Sequence (P05364 21-381): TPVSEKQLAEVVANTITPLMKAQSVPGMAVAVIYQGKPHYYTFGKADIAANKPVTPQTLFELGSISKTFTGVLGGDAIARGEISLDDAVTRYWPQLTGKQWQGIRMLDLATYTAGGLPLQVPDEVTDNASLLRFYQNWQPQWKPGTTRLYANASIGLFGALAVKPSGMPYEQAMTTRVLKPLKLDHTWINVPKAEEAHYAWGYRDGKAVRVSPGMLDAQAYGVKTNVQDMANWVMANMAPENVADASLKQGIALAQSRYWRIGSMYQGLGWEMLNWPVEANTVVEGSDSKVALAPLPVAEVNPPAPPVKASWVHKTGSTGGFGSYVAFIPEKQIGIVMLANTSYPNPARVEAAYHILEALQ
- PROTOCOL_TEXT: biochemical
- Design: species or system Enterobacter cloaca
Where a name gives a salt, the structure may show the parent alone.
MEASUREMENT_LABEL: IC50
Remember to follow the number with its unit.

Q: I'd like to know its IC50. The molecule in question is Cc1cccc2sc3nc(/C=C4/C(=O)N5C(C(=O)O)=CS[C@H]45)cn3c12
Ans: 1.6 nM

Q: Can you share its IC50? I mean this molecule: O=C(O)C1=CS[C@@H]2/C(=C\c3cn4c(n3)sc3cc(F)ccc34)C(=O)N12
Ans: 2.4 nM

Q: Give the measured IC50 of O=C(O)C1=CS[C@@H]2/C(=C/c3ccc4c(c3)N(Cc3ccccc3)C(=O)c3ccccc3O4)C(=O)N12 .
Ans: 4.5 nM

Q: Consider the molecule shown here: O=C(O)C1=CS[C@@H]2/C(=C\c3cn4c(n3)nc3n4CCCC3)C(=O)N12 [Example 8, sodium salt] What is its recorded IC50?
Ans: 1.4 nM

====

- TARGET_OR_TEST_SYSTEM: class A β-lactamase Imi-1 (Enterobacter cloacae, UniProt Q46991)
- Sequence (Q46991 entry or part of it): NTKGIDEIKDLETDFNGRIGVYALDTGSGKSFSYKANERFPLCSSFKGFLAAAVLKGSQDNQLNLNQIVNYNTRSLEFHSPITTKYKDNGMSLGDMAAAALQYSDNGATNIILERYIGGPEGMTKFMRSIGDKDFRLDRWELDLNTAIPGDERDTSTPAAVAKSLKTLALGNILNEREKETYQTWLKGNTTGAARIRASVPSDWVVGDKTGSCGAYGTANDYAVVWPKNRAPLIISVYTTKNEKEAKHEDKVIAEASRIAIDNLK
- PROTOCOL_TEXT: β-Lactamase inhibition, IC50 determination (nitrocefin, spectrophotometric)
- Type: biochemical
pIC50: −log10 of the molar value. Structures can show the parent of a compound that is named as a salt.
Please mark criterion met if the recorded pIC50 is equal to or greater than 7, and criterion not met if it falls below.

Q: Could you verify whether the entry O=C(O)C1=CS[C@@H]2/C(=C\c3cn4c(n3)-c3ccccc3C4)C(=O)N12 [Example 12, sodium salt] shows pIC50 of no less than 7?
Ans: criterion met

Q: For this compound, is measured pIC50 7 or higher? O=C([O-])C1=CS[C@@H]2/C(=C\c3ccc4nc5sccn5c4c3)C(=O)N12.[Na+] [Example 30, sodium salt]
Ans: criterion not met

Q: Textbook exercise: given the entry O=C([O-])C1=CS[C@@H]2/C(=C\c3cn4c5c(c(OCCOCc6ccccc6)nc4n3)CCC5)C(=O)N12.[Na+] [Example 27, sodium salt] , state whether its pIC50 is greater than or equal to 7.
Ans: criterion met

Q: Hi, just wondering whether O=C(O)C1=CS[C@@H]2/C(=C\c3cn4c(n3)sc3cc(F)ccc34)C(=O)N12 shows pIC50 of 7 or higher.
Ans: criterion not met
